Target: T1, Human CD19-his protein (human, UniProt P15391 20-291)
T1 construct: bought protein; also called recombinant human CD19-His; CD19 full-length protein; not shown: His tag
T1 sequence (looked up): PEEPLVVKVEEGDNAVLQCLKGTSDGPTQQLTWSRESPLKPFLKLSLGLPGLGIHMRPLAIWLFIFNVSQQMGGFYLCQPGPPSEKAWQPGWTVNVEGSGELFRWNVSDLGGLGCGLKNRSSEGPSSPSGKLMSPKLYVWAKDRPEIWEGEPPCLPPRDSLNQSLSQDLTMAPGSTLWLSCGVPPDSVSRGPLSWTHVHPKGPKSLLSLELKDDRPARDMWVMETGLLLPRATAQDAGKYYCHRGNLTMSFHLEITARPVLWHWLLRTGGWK
Test: ELISA, coated human CD19-His
measurement.name: OD450 at 0.0001 nM (OD450)

binder	experimental.value
F3.121.4 (antibody, human IgG1, V domains shown, human-murine chimeric antibody, human IgG1 constant; also called chimeric antibody F3.121.4) VH: QVQLQQPGAELVVPGTSVKLSCKASGYTFTNYWMHWVKQRPGQGLEWIGEIDPSDNYANYNQEFQGKATLTVDKSSSTAYMQLSSLTSDDSAVYYCARHDGYFGALDYWGQGTSVTVSS VL: EIVLTQSPTTMAASPGEKITITCSASSSISSNYLHWYQQKPGFSPKFLIYRTSNLASGVPARFSGSGSGTSYSLTIGTMEAEDVATYYCQQASSIPRMFTFGSGTKLEIK	0.05
